# credit: PubChem BioAssay AID1963847

Entries and their IC50
System: 415267-285-R-J2-PDC complex spheroid viability
Test: Anticancer human tumor 415267-285-R-J2-PDC patient-derived breast carcinoma cell line growth inhibition [POLQ]
Conditions: curve of first compound; second compound 0.316 µM

>>> result("C=CC(=O)N1CCN(c2nc(=O)n(-c3c(C)ccnc3C(C)C)c3nc(-c4c(O)cccc4F)c(F)cc23)C(C)C1 (stereo not drawn) + COC1C(OC(N)=O)C(O)C(Oc2ccc3c(O)c(NC(=O)c4ccc(O)c(CC=C(C)C)c4)c(=O)oc3c2C)OC1(C)C")
"> 10 µM"
>>> result("O=C(c1cc(Cc2n[nH]c(=O)c3ccccc23)ccc1F)N1CCN(C(=O)C2CC2)CC1 + Cc1cccc(N(C)C(=O)C2C(O)CCN2c2nc(C)cc(C(F)(F)F)c2C#N)c1")
"> 10 µM"

Turning now to a further compound:
Input line: Fill in the blank: the reported IC50 of CC1COCCN1c1cc(C2(O)CC3CCC(C2)O3)c2cnn(-c3ccn[nH]3)c2n1 (stereo not drawn) + Cc1cccc(N(C)C(=O)C2C(O)CCN2c2nc(C)cc(C(F)(F)F)c2C#N)c1 is ____.
Output line: < 0.0316 µM

* * *

Tested on: 415267-285-R-J2-PDC complex spheroid viability
Assay: Anticancer human tumor 415267-285-R-J2-PDC cell line growth inhibition [POLQ];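 further: spheroids exposed to compounds for one week before readout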;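 on viability, T/C: luminescence used as stand-in measure of viable cells; 100% = DMSO vehicle control viability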
Settings: second compound 0.316 µM; first compound 0.001 µM; stronger effect = lower value
Examples of compounds with documented viability, T/C follow.
State the answer as a number, implicitly in %.

>>> number("Cn1ncnc1[C@H]1c2n[nH]c(=O)c3cc(F)cc(c23)N[C@@H]1c1ccc(F)cc1 + COC1C(OC(N)=O)C(O)C(Oc2ccc3c(O)c(NC(=O)c4ccc(O)c(CC=C(C)C)c4)c(=O)oc3c2C)OC1(C)C")
99.6
>>> number("CC[C@@]1(O)C(=O)OCc2c1cc1n(c2=O)Cc2cc3c(CN(C)C)c(O)ccc3nc2-1 + COC1C(OC(N)=O)C(O)C(Oc2ccc3c(O)c(NC(=O)c4ccc(O)c(CC=C(C)C)c4)c(=O)oc3c2C)OC1(C)C")
101
>>> number("Cn1ncnc1[C@H]1c2n[nH]c(=O)c3cc(F)cc(c23)N[C@@H]1c1ccc(F)cc1 + Nc1ccc(C#CCN(C(=O)Cc2ncc(C(F)(F)F)cc2C(F)(F)F)c2ccc(F)cc2)nn1")
102
>>> number("CC[C@@]1(O)C(=O)OCc2c1cc1n(c2=O)Cc2cc3c(CN(C)C)c(O)ccc3nc2-1 + Nc1ccc(C#CCN(C(=O)Cc2ncc(C(F)(F)F)cc2C(F)(F)F)c2ccc(F)cc2)nn1")
98.2
>>> number("Cn1ncnc1[C@H]1c2n[nH]c(=O)c3cc(F)cc(c23)N[C@@H]1c1ccc(F)cc1 + Cc1cccc(N(C)C(=O)C2C(O)CCN2c2nc(C)cc(C(F)(F)F)c2C#N)c1")
90.4

Turning now to a further record.
Input line: I'd like to know its viability, T/C. The compound in question is CC[C@@]1(O)C(=O)OCc2c1cc1n(c2=O)Cc2cc3c(CN(C)C)c(O)ccc3nc2-1 + Cc1cccc(N(C)C(=O)C2C(O)CCN2c2nc(C)cc(C(F)(F)F)c2C#N)c1
Output line: 98

* * *

Tested on: 415267-285-R-J2-PDC complex spheroid viability
Assay: Anticancer human tumor 415267-285-R-J2-PDC cell line growth inhibition [POLQ];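 further: spheroids exposed to compounds for one week before readout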;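 on viability, T/C: luminescence used as stand-in measure of viable cells; 100% = DMSO vehicle control viability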
Conditions: second compound 0.1 µM; first compound 1 µM; stronger effect = lower value
Values of viability, T/C strictly less than 20% map to Met, and values of at least 20% map to Not met.

Reference set (5 entries):
>>> class("CCc1c2c(nc3ccc(O)cc13)-c1cc3c(c(=O)n1C2)COC(=O)[C@]3(O)CC + Cc1cccc(N(C)C(=O)C2C(O)CCN2c2nc(C)cc(C(F)(F)F)c2C#N)c1")
"Met"
>>> class("O=C(c1cc(Cc2n[nH]c(=O)c3ccccc23)ccc1F)N1CCN(C(=O)C2CC2)CC1 + Nc1ccc(C#CCN(C(=O)Cc2ncc(C(F)(F)F)cc2C(F)(F)F)c2ccc(F)cc2)nn1")
"Not met"
>>> class("O=C(Nc1ccc(O)c(NS(=O)(=O)c2ccc(F)cc2)c1)c1ccc(-c2ccccc2)cc1 + COC1C(OC(N)=O)C(O)C(Oc2ccc3c(O)c(NC(=O)c4ccc(O)c(CC=C(C)C)c4)c(=O)oc3c2C)OC1(C)C")
"Not met"
>>> class("O=c1[nH]cc(F)c(=O)[nH]1 + Nc1ccc(C#CCN(C(=O)Cc2ncc(C(F)(F)F)cc2C(F)(F)F)c2ccc(F)cc2)nn1")
"Not met"
>>> class("O=c1[nH]cc(F)c(=O)[nH]1 + Cc1cccc(N(C)C(=O)C2C(O)CCN2c2nc(C)cc(C(F)(F)F)c2C#N)c1")
"Not met"

Input line: Is 20% strictly greater than the compound's reported viability, T/C? compound: COc1cc(C2c3cc4c(cc3C(OC3OC5COC(C)OC5C(O)C3O)C3COC(=O)C23)OCO4)cc(OC)c1O (stereo unspecified) + Cc1cccc(N(C)C(=O)C2C(O)CCN2c2nc(C)cc(C(F)(F)F)c2C#N)c1
Output line: Met

Input line: Is the reported viability, T/C for COc1cc2cc(C(=O)CCC(=O)O)sc2cc1OC + Nc1ccc(C#CCN(C(=O)Cc2ncc(C(F)(F)F)cc2C(F)(F)F)c2ccc(F)cc2)nn1 strictly below 20%?
Output line: Not met

Input line: Problem: For the compound CC1COCCN1c1cc(-c2ccnn2C)c2ccnc(-c3ccn[nH]3)c2n1 (stereo unspecified) + Cc1cccc(N(C)C(=O)C2C(O)CCN2c2nc(C)cc(C(F)(F)F)c2C#N)c1 , is viability, T/C under 20%?
Output line: Met

Input line: Please indicate whether the reported viability, T/C of O=C(c1cc(Cc2n[nH]c(=O)c3ccccc23)ccc1F)N1CCN(C(=O)C2CC2)CC1 + COC1C(OC(N)=O)C(O)C(Oc2ccc3c(O)c(NC(=O)c4ccc(O)c(CC=C(C)C)c4)c(=O)oc3c2C)OC1(C)C is strictly below 20%.
Output line: Not met

Input line: is_below(viability, T/C, 20%) for Nc1ccn(C2OC(CO)C(O)C2(F)F)c(=O)n1 (stereo unspecified) + Nc1ccc(C#CCN(C(=O)Cc2ncc(C(F)(F)F)cc2C(F)(F)F)c2ccc(F)cc2)nn1 ?
Output line: Met

Input line: Regarding CC(C)n1c(=O)n(C)c2cnc3cc(F)c(-c4ccc(OCCCN5CCCCC5)nc4)cc3c21 + COC1C(OC(N)=O)C(O)C(Oc2ccc3c(O)c(NC(=O)c4ccc(O)c(CC=C(C)C)c4)c(=O)oc3c2C)OC1(C)C , kindly confirm whether its viability, T/C is beneath 20%.
Output line: Not met
